# STUDY TARGET: Protein phosphatase 5 (EcPP5, rEcPP5) (Epicauta chinensis, UniProt W0FW71)
# Construct: recombinant full ORF (499 aa), N-terminal His6 tag, E. coli expressed
# Sequence (W0FW71 1-499): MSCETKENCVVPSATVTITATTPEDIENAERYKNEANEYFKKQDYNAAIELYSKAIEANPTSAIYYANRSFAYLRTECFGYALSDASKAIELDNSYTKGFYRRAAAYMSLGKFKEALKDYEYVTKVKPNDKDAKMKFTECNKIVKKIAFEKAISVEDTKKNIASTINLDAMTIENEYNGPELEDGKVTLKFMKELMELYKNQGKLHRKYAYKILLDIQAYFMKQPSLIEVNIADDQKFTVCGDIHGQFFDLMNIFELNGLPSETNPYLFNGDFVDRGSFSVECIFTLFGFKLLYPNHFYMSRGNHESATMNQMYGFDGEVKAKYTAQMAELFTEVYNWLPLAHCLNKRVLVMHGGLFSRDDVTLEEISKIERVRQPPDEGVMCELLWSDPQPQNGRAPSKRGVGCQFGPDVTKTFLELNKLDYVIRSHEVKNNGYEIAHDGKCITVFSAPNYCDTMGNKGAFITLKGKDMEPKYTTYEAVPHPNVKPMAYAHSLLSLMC
# TEST METHOD NOTES: pNPP phosphatase assay, dose-response, purified enzyme
# Format: biochemical
# APPLIED CONDITIONS: read-out: IC50
VALUE TYPE: pIC50
Reminder that pIC50 is minus the log10 of a molar concentration.

# pIC50 (compound: O=C1OC(=O)[C@H]2[C@@H]1[C@@H]1CC[C@H]2O1 [norcantharidin] ) is 4.59

Just for reference, paper PMC3876124 is where these values come from.
